# test-protocol: yeast display, Sf9 membrane polyspecificity reagent, FACS + sequencing; frameworks hold sequencing errors
endpoint-label: polyreactivity (PSR sort gate)

- QVQLVESGGGLVQAGGSLRLSFAASGGIFRLYAMGWYRQAPGKERELVAAINGGGSTNYADSVKGRFTISRDNAKNTVYLQMNSLKPEDTAVYYCNAVQYYRFQVYEYDYWGQGTQVTVSS: high polyreactivity
- QVQLVESGGGLVQAGGSLRLSCAASGSTFARYAMGWYRQAPGKERELVAAITWRGGSTYYADSVKGRFTISRDNAKNTVYLQMNSLKPEDTAVYYCAADFSRRYGYWGQGTQVTVSS: high polyreactivity

---

# test-protocol: yeast display, Sf9 membrane polyspecificity reagent, FACS + sequencing; frameworks hold sequencing errors
endpoint-label: polyreactivity (PSR sort gate)

- QVQLVESGRGLVQAGGSLRLSCAASGFTFGYYAMGWYRQAPGKERELVAAISASGASTYYADSVKGRFTISRDNAKNTVYLQMTSLKPEDTAVYYCAARPGQLTSPVTRTRYNYWGQGTQVTVSS: low polyreactivity
- QVQLVESGGGLVQAGGSLRLSSAASGRIFWAYLMGRYRQAPGKERELVATIRWRGGSTYYADSVKGRFTISRDNAKNTFYLQMIRLKLEDTAVYYCNADRYSRISPTRYDYWGQGTQVTVSS: high polyreactivity
- QVQLVESGGGLVQAGCSLRLSWAASGRTFFSNAMGWYRQAPGKERELVAAISNGDNTYYADSVKGRFTISRDNAKNTVYLQMNSLKPEDTAVYYCAKDYRWVWRKYGYWGQGTQVTVSS: low polyreactivity
- QVQLVESGGGLVQAGGSLRLSCAASGGNLPYNVMGRYRQAPGKEWELVAAITSGVNTNYADSVKGRFTISRDNAKNTVYLQMNSLKPEDTAVYYCAARSGGPSDGSGYWGQGTQVTVSS: low polyreactivity
- QVQLVESGGGLVQAGGSLRLSCAASGGTLPKYAMGWYRQAPGKERELVARITWNDGTTYYADSVKGRFTISRDNAKNTVYLQMNSLKPEDTAVYYCNTDRAYWFLYPFSYYYWGQGTQVTVSS: low polyreactivity
- QVQLVESGGGLVQEGGTLRLSCAASGSISIRNAMGWYRQAPGKERELVAAITYSGGSTYYADSVKGRFTISRDTAKNTVYLQMNSLKPEDTAVYYCAKDHYRFRYDYWGQGTQVTVSS: low polyreactivity
- QGQLVESGGGLVQAGGSLRLSCAASGSTLVYNDMGWYRQAPGKEREFVAAISISGTSTYADSVKGRFTISRDNAKNTVYLQMNSLKPEDTAVYWGQGTQVTVSS: low polyreactivity
- QVQLVESGGGLVQAGGSLRLSCAASGITYYRNAMGWYRQAPGKERELVAAISWSGGRTYYADSVKGRFTISRDNAKNTVYLQMNSLKPEDTAVYYCNKYTHYYDYDYWGQGTQVTVSS: high polyreactivity
- QVQLVESGGGLVQSGGSLRLSCGASGLIYGPNSMGWYRQAPAKERELVAAITKSGDSTYYADSVKGRFTISRDNAKNTVYLQMNSLKPEDTAVYYCAAEWYPYPWGYGYWGQGTQVTVSS: low polyreactivity
- QVQLVESGGGLVHAGGSLRLSCAASGFIYPGNAKGWYIQAPGKERELVAAISNSGSRTYYADSVKGRFTISRDHAMNTVYLQMNSLKPEDTAVYYCNADVDNRGWPYDYWGQGTQVNVSS: low polyreactivity
- QVQLVESGGGLVQAGGSLRLSCAASGSTFPWNAMGWYRPAPGKERELVAAISSGGSTNYADSVKGRFTISRDNAKNTVYLQMNSLKPEDTAVYYCNAYYWSDSRGKYDYWGQGTQVTVSS: low polyreactivity
